Hello, the source for this data is PubChem BioAssay AID1495, in case you need it.

Target: Chaperone protein DnaK (Escherichia coli)
Experiment: DnaK beta-domain binding affinity, SAR follow-up, orthogonal assay for DnaK modulator project, biophysical, isothermal titration calorimetry, full-length DnaK (AID 1495)
Conditions: purified DnaK, measured here: substrate peptide Kd, compound-saturated DnaK
measured.attribute: pKd
One number for each entry, as −log10 of the molar value.

molecule	pKd
O=C(Nc1ccc2[nH]ccc2c1)c1cccs1	5.66

Give measured pKd for every item shown.
1. O=C(c1cccs1)N1CCN(CCO)CC1
2. CC(Cc1ccc(F)cc1)NC(=O)c1cccs1 (stereo not given)
3. O=C(NCc1ccc(Cl)c(Cl)c1)c1cccs1
4. O=C(NCc1ccccc1O)c1cccs1

## Result
1. 5.10
2. 6.70
3. 6.22
4. 5.92
